Test system: Pseudomonas aeruginosa
assay_details: Growth inhibition of Pseudomonas aeruginosa PA14 after 24 hrs
Format: functional, organism-based
condition_info: PA14, 24 h
The entries below are paired with their reported log10(IC50).
Recorded IC50 (log10, nM)

Worked set:
- CCCCCC[C@H](CCCCCCC(N)=O)OC(=O)[C@@H]1CC=CN1C(=O)c1ccccc1O: 1.54
- CCCCCC[C@H](CCCCC[C@@H](O)C(N)=O)OC(=O)[C@@H]1CC(F)=CN1C(=O)c1ccccc1O: 1.28
- CCCCCC[C@@H](CCCCC[C@@H](O)C(N)=O)OC(=O)[C@@H]1CC=CN1C(=O)c1ccccc1O: 3.18
- CCCCCC[C@@H](CCCCC[C@H](O)C(N)=O)OC(=O)[C@@H]1CC=CN1C(=O)c1ccccc1O: 3.90

Kindly review the next compound as well.
// lookup log10(IC50) for CCCCCC[C@H](CCCCC[C@H](O)C(N)=O)OC(=O)[C@@H]1CC=CN1C(=O)c1ccccc1O
3.70
